Biological target: UniProt P24666
Sequence (P24666 whole entry): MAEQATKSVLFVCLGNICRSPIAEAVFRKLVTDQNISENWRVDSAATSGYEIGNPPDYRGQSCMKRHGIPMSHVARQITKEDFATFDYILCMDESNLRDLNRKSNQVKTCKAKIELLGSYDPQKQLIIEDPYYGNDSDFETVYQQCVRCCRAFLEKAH
Test: Inhibition of recombinant human LMW-PTP isoform 2 expressed in Escherichia coli TB1
recorded_endpoint: pIC50
Answers are plain numbers, as −log10 of the molar value.

Would you mind giving pIC50 for every molecule in the list below?
1. COC(=O)[C@]12CCC(C)(C)C=C1[C@H]1CC[C@@H]3[C@@]4(C)CCC(=O)C(C)(C)[C@@H]4CC[C@@]3(C)[C@]1(C)CC2
2. CC1(C)C=C2[C@H]3CC[C@@H]4[C@@]5(C)CCC6(OCCO6)C(C)(C)[C@@H]5CC[C@@]4(C)[C@]3(C)CC[C@@]2(CO)CC1

OUTPUT:
1. 4.20
2. 4.53
